B1: SCARA5 (parent)
chain: VTEDLRLKDWEHSIALRNISLAKG

variants of: B1; assay: protein stability index of a GFP-peptide fusion (GPS, HEK-293T) (PSI 1-6); higher = more stable; settings: c terminus: a fixed tail appended;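 note: lentivirally expressed fusions sorted by FACS into six bins by GFP to DsRed ratio, PSI derived from sequencing read proportions per bin multiplied by bin number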
Known protein stability index of a selection of variants
Output: the number by itself.

sequence-entry | protein stability index
VTEDLRLKDWNHSIALRNISLAKG [E11N] | 3.56
VTEDLRLKDWEHSIALRNISLALG [K23L] | 2.95
VTEDLRLKPWEHSIALRNISLAKG [D9P] | 3.37
VTEDLRLKDIEHSIALRNISLAKG [W10I] | 3.41
VTEDLRLKGWEHSIALRNISLAKG [D9G] | 2.29

Task: Look up protein stability index for this variant: RTEDLRLKDWEHSIALRNISLAKG [V1R]
Result: 3.39

Task: Also VTEDLRLLDWEHSIALRNISLAKG [K8L] ?
Result: 3.04

Task: What about VTEDPRLKDWEHSIALRNISLAKG [L5P] ?
Result: 3.77

Task: Likewise for VTEDLRLKDWEHSIALRDISLAKG [N18D] ?
Result: 3.81

Task: Another variant: VTEDRRLKDWEHSIALRNISLAKG [L5R]
Result: 3.74

Task: Follow-up entry: VQEDLRLKDWEHSIALRNISLAKG [T2Q]
Result: 3.58

Values from the supplement of paper PMC10567573
